Test system: Liver microsome
Experiment: Intrinsic clearance in Wistar rat liver microsomes measured per gram of tissue at 2.5 uM
Assay type: ADME
REPORTED_PROPERTY: CLH (mL/min/g)
# unit: mL/min/g | format: bare number

# annotated cases, reported CLH shown
>  <SMILES_REPR>
Nc1ccc2c(-c3ccc(Cl)cc3)c(S(=O)(=O)c3ccc(Cl)cc3)sc2n1

>  <U>
mL/min/g

>  <CLH>
0.5

$$$$
>  <SMILES_REPR>
O=S(=O)(c1ccc(Cl)cc1)c1sc2ncc(Cl)cc2c1-c1ccc(Cl)cc1

>  <U>
mL/min/g

>  <CLH>
2.8

$$$$
>  <SMILES_REPR>
N#Cc1cc(F)cc(S(=O)(=O)c2sc3nc(Cl)ccc3c2-c2ccc(F)cc2)c1

>  <U>
mL/min/g

>  <CLH>
2.1

$$$$
>  <SMILES_REPR>
N#Cc1cccc(S(=O)(=O)c2sc3ncccc3c2-c2cccc(F)c2)c1

>  <U>
mL/min/g

>  <CLH>
13.9

$$$$
>  <SMILES_REPR>
N#Cc1cc(F)cc(S(=O)(=O)c2sc3ncccc3c2-c2cccc(Cl)c2)c1

>  <U>
mL/min/g

>  <CLH>
2

$$$$

Q. For the compound `N#Cc1cccc(S(=O)(=O)c2sc3ncccc3c2-c2ccc(F)cc2)c1` , what CLH is on record?
A. 9.6

Q. For the compound `O=S(=O)(c1ccc(Cl)cc1)c1sc2nc(F)ccc2c1-c1ccc(Cl)cc1` , what CLH is on record?
A. 3.8

Q. For the compound `N#Cc1cccc(S(=O)(=O)c2sc3ncccc3c2-c2ccc(Cl)cc2)c1` , what CLH is on record?
A. 12.8

Q. For the compound `N#Cc1cc(F)cc(S(=O)(=O)c2sc3nc(F)ccc3c2-c2cccc(F)c2)c1` , what CLH is on record?
A. 2.9

Q. For the compound `O=S(=O)(c1ccc(Cl)cc1)c1sc2ncccc2c1-c1ccc(Cl)cc1` , what CLH is on record?
A. 4.2

* * *

Tested on: Liver microsome
Assay: Intrinsic clearance in human liver microsomes measured per gram of tissue at 2.5 uM
Format: ADME
Lab note: cut-off is 1 mL/min/g. Strictly less in CLH is MET. Exactly 1 mL/min/g or more is NOT MET.

Known results for compounds:
>  <SMILES_REPR>
O=S(=O)(c1ccc(Cl)cc1)c1sc2ncccc2c1-c1ccc(Cl)c(Cl)c1

>  <TARGET_ENTITY>
Liver microsome

>  <LABEL_CLASS>
NOT MET

$$$$
>  <SMILES_REPR>
N#Cc1cc(F)cc(S(=O)(=O)c2sc3ncc(N)cc3c2-c2cnccc2F)c1

>  <TARGET_ENTITY>
Liver microsome

>  <LABEL_CLASS>
MET

$$$$
>  <SMILES_REPR>
N#Cc1cc(F)cc(S(=O)(=O)c2sc3ncc(N)cc3c2-c2c(F)cncc2F)c1

>  <TARGET_ENTITY>
Liver microsome

>  <LABEL_CLASS>
MET

$$$$
>  <SMILES_REPR>
N#Cc1cccc(S(=O)(=O)c2sc3ncc(N)cc3c2-c2ccccc2F)c1

>  <TARGET_ENTITY>
Liver microsome

>  <LABEL_CLASS>
MET

$$$$

Q. Regarding `O=S(=O)(c1ccc(Cl)cc1)c1sc2ncccc2c1-c1cccc(Cl)c1` , kindly confirm whether its CLH is beneath 1 mL/min/g.
A. NOT MET

Q. Regarding `N#Cc1cccc(S(=O)(=O)c2sc3ncc(N)cc3c2-c2ccc(Cl)cc2)c1` , kindly confirm whether its CLH is beneath 1 mL/min/g.
A. NOT MET

Q. Regarding `O=S(=O)(c1ccc(Cl)cc1)c1sc2ncccc2c1-c1cnccc1F` , kindly confirm whether its CLH is beneath 1 mL/min/g.
A. NOT MET

* * *

System: Liver microsome
Assay: Intrinsic clearance in Wistar rat liver microsomes measured per gram of tissue at 2.5 uM
Assay type: ADME
REPORTED_PROPERTY: CLH (mL/min/g)
# unit: mL/min/g | format: bare number

Q. For the compound `N#Cc1cc(F)cc(S(=O)(=O)c2sc3ncc(N)cc3c2-c2ccc(F)c(F)c2)c1` , what CLH is on record?
A. 1

* * *

Test system: Liver microsome
Assay: Intrinsic clearance in human liver microsomes measured per gram of tissue at 2.5 uM
Type: ADME
Note to self: class = bucket of CLH, per low bracket (below 1 mL/min/g), middle bracket (1 mL/min/g to below 2 mL/min/g), high bracket (2 mL/min/g or more)

>  <SMILES_REPR>
N#Cc1cc(F)cc(S(=O)(=O)c2sc3ncccc3c2-c2cccc(Cl)c2)c1

>  <LABEL_CLASS>
high bracket

$$$$
>  <SMILES_REPR>
N#Cc1cccc(-c2c(S(=O)(=O)c3cccc(C#N)c3)sc3ncccc23)c1

>  <LABEL_CLASS>
middle bracket

$$$$
>  <SMILES_REPR>
N#Cc1cccc(S(=O)(=O)c2sc3ncc(N)cc3c2-c2ccc(F)cc2)c1

>  <LABEL_CLASS>
middle bracket

$$$$
>  <SMILES_REPR>
N#Cc1cc(F)cc(S(=O)(=O)c2sc3ncccc3c2-c2cnccc2Cl)c1

>  <LABEL_CLASS>
middle bracket

$$$$
>  <SMILES_REPR>
N#Cc1cccc(S(=O)(=O)c2sc3ncc(N)cc3c2-c2cccc(Cl)c2)c1

>  <LABEL_CLASS>
low bracket

$$$$

Q. Classify this compound: `N#Cc1cccc(S(=O)(=O)c2sc3ncccc3c2-c2ccc(Cl)cc2)c1`
A. high bracket

Q. Classify this compound: `Cc1ccc(-c2c(S(=O)(=O)c3cccc(C#N)c3)sc3ncccc23)cc1`
A. high bracket

* * *

// reported CLH for each item listed
System: Liver microsome
Assay: Intrinsic clearance in Wistar rat liver microsomes measured per gram of tissue at 2.5 uM
Format: ADME
# unit: mL/min/g | format: bare number

# annotated cases, reported CLH shown
>  <SMILES_REPR>
N#Cc1cc(F)cc(S(=O)(=O)c2sc3ncc(N)cc3c2-c2cccc(Cl)c2)c1

>  <CLH / mL/min/g>
1.5

$$$$
>  <SMILES_REPR>
Nc1cnc2sc(S(=O)(=O)c3ccc(Cl)cc3)c(-c3ccc(Cl)cc3)c2c1

>  <CLH / mL/min/g>
0.7

$$$$

Q. For the compound `O=S(=O)(c1ccc(Cl)cc1)c1sc2ncccc2c1Oc1ccc(Cl)cc1` , what CLH is on record?
A. 9.3

Q. For the compound `N#Cc1cccc(S(=O)(=O)c2sc3ncc(N)cc3c2-c2ccc(Cl)cc2)c1` , what CLH is on record?
A. 0.4

Q. For the compound `Cc1ccc(-c2c(S(=O)(=O)c3ccc(Cl)cc3)sc3ncccc23)cc1` , what CLH is on record?
A. 15.7

Q. For the compound `O=S(=O)(c1ccc(Cl)cc1)c1sc2nccc(F)c2c1-c1ccc(Cl)cc1` , what CLH is on record?
A. 12.1

Q. For the compound `N#Cc1cc(F)cc(S(=O)(=O)c2sc3ncc(N)cc3c2-c2ccccc2F)c1` , what CLH is on record?
A. 2.5

* * *

System: Liver microsome
Test: Intrinsic clearance in human liver microsomes measured per gram of tissue at 2.5 uM
Format: ADME
Note to self: values exactly at 0.9 mL/min/g are class 1. So CLH at or above 0.9 mL/min/g is class 1, below is class 0.

Known results for molecules:
>  <SMILES_REPR>
O=S(=O)(c1ccc(Cl)cc1)c1sc2ncc(Cl)cc2c1-c1ccc(Cl)cc1

>  <LABEL_CLASS>
class 0

$$$$
>  <SMILES_REPR>
N#Cc1cc(F)cc(S(=O)(=O)c2sc3ncccc3c2-c2ccc(F)cc2)c1

>  <LABEL_CLASS>
class 1

$$$$
>  <SMILES_REPR>
O=S(=O)(c1ccc(Cl)cc1)c1sc2nc(Cl)ccc2c1-c1ccc(Cl)cc1

>  <LABEL_CLASS>
class 0

$$$$
>  <SMILES_REPR>
Cc1ccc(-c2c(S(=O)(=O)c3ccc(Cl)cc3)sc3ncccc23)cc1

>  <LABEL_CLASS>
class 1

$$$$
>  <SMILES_REPR>
N#Cc1cccc(S(=O)(=O)c2sc3ncccc3c2-c2ccc(F)cc2)c1

>  <LABEL_CLASS>
class 1

$$$$
>  <SMILES_REPR>
Cc1cccc(-c2c(S(=O)(=O)c3cccc(C#N)c3)sc3ncccc23)c1

>  <LABEL_CLASS>
class 1

$$$$

Q. Is the recorded value of CLH equal to or greater than 0.9 mL/min/g for this molecule? `Nc1ccc2c(-c3ccc(Cl)cc3)c(S(=O)(=O)c3ccc(Cl)cc3)sc2n1`
A. class 0

Q. Is the recorded value of CLH equal to or greater than 0.9 mL/min/g for this molecule? `COc1ccc2c(-c3ccc(Cl)cc3)c(S(=O)(=O)c3cccc(C#N)c3)sc2n1`
A. class 0
